Cited source for all entries: patent US20120251547A1

biological target: T1, huIL-17RA-FLAG-polyHis (human, UniProt Q96F46 33-320); experiment: binning; IL-17RA held by bead mAb I
T1 construct: also called IL-17RA-FLAG-pHis; wild-type IL-17RA

[
  {
    "binder": "AMH21/AML21 (antibody, IgG2, V domains shown, human mAb from IgG2 XenoMouse mice; also called AM-21; antibody Q) VH: EVQLVESGGGSVQPGGSLRLSCAASGFTFSSYSMNWVRQAPGKGLEWVSIISSRSSIIHYADSVKGRFTISRDNAKNSLYLQMNSLRDEDTAVYYCARPKVGGGMDVWGQGTTVTVSS VL: DIQMTQSPSSLSASVGDRVTITCRASQGISNYLAWYQQKPGKFPELLIYAASTLQSGVPSRFSGSGSGTDFTLTISSLQPEDVATYYCQKYNRAPFTFGPGTKVDIK",
    "normalized MFI": 2.5
  },
  {
    "binder": "AMH7/AML7 (antibody, IgG2, V domains shown, human mAb from IgG2 XenoMouse mice; also called AM-7; antibody D) VH: QVQLVQSGAEVKKPGASVKVSCKASGYTLTRYGISWVRQAPGQGLEWMGWISAYNGNTNYAQKLQGRVTMTTDTSTSTAYMELRSLRSDDTAVYYCARRDYDILTGYYNGFDPWGQGTLVTVSS VL: DIQMTQSPSSLSASVGDRVTITCRASQGIRNDLGWYQQKPGKAPKRLIYAASSLQSGVPSRFSGSGSGTEFTLTISSLQPEDFATYYCLQHKSYPLTFGGGTKVEIK",
    "normalized MFI": 6650
  }
]
